Kindly supply the reported GI50 values for the records listed here.
tested on: K562; experiment: NCI tumour cell line growth inhibition, 48 h
Counter-ions that a name gives are not always drawn. Calls of active or inactive are those of the source. Cut-off read from the data, not from the text of the source: active = GI50 up to about 1.1 µM and inactive = higher.

Solved entries:
[
  {
    "molecule": "COc1cc(S(=O)(=O)Nc2ccc(-c3csc(/N=C\\c4cccc(Oc5ccccc5)c4)n3)cc2)ccc1Cl",
    "assay-system": "K562",
    "GI50": "22.6 µM (inactive)"
  },
  {
    "molecule": "CC(=O)Nc1ccc(S(=O)(=O)Nc2cnc3ccccc3n2)cc1",
    "assay-system": "K562",
    "GI50": "> 100 µM (inactive)"
  },
  {
    "molecule": "NCCS [CYSTEAMINE HYDROCHLORIDE]",
    "assay-system": "K562",
    "GI50": "> 100 µM (inactive)"
  },
  {
    "molecule": "CC(=O)O[C@H]1CC[C@@H](OC(C)=O)[C@H]2[C@H](O)[C@H](O)[C@@H]1n1c(=O)n(-c3ccccc3)c(=O)n12",
    "assay-system": "K562",
    "GI50": "> 100 µM (inactive)"
  },
  {
    "molecule": "CCOc1ccc(-n2nnc3c(N)nc(N)nc32)cc1",
    "assay-system": "K562",
    "GI50": "> 100 µM (inactive)"
  },
  {
    "molecule": "CCOC(=O)C1C=C1C(C)(C)O (stereo not given)",
    "assay-system": "K562",
    "GI50": "> 10 µM (inactive)"
  },
  {
    "molecule": "O=C1OC(CCCl)(c2ccccc2)CC1CN1CCOCC1 (stereo not given)",
    "assay-system": "K562",
    "GI50": "14.8 µM (inactive)"
  },
  {
    "molecule": "C1COCCOP2(N3CC3)=NP(N3CC3)(=NP(N3CC3)(N3CC3)=N2)OCCOCCO1 (stereo not given)",
    "assay-system": "K562",
    "GI50": "> 100 µM (inactive)"
  },
  {
    "molecule": "C[N+](C)(C)CC1CCCCCCCCCCC1=O (stereo not given)",
    "assay-system": "K562",
    "GI50": "> 100 µM (inactive)"
  }
]

Please find the next molecule below.
Query string: Print K562 GI50 for C=C1CCC(O)C/C1=C/C=C1\CCCC2(C)C1CCC2C(C)CCCC(C)C (stereo not given) .
Result string: 21.2 µM (inactive)
